Origin of measurements: ChEMBL document CHEMBL5034043

Biological target: SWI/SNF-related matrix-associated actin-dependent regulator of chromatin subfamily A member 2 (Homo sapiens, UniProt P51531)
Sequence (P51531 whole entry): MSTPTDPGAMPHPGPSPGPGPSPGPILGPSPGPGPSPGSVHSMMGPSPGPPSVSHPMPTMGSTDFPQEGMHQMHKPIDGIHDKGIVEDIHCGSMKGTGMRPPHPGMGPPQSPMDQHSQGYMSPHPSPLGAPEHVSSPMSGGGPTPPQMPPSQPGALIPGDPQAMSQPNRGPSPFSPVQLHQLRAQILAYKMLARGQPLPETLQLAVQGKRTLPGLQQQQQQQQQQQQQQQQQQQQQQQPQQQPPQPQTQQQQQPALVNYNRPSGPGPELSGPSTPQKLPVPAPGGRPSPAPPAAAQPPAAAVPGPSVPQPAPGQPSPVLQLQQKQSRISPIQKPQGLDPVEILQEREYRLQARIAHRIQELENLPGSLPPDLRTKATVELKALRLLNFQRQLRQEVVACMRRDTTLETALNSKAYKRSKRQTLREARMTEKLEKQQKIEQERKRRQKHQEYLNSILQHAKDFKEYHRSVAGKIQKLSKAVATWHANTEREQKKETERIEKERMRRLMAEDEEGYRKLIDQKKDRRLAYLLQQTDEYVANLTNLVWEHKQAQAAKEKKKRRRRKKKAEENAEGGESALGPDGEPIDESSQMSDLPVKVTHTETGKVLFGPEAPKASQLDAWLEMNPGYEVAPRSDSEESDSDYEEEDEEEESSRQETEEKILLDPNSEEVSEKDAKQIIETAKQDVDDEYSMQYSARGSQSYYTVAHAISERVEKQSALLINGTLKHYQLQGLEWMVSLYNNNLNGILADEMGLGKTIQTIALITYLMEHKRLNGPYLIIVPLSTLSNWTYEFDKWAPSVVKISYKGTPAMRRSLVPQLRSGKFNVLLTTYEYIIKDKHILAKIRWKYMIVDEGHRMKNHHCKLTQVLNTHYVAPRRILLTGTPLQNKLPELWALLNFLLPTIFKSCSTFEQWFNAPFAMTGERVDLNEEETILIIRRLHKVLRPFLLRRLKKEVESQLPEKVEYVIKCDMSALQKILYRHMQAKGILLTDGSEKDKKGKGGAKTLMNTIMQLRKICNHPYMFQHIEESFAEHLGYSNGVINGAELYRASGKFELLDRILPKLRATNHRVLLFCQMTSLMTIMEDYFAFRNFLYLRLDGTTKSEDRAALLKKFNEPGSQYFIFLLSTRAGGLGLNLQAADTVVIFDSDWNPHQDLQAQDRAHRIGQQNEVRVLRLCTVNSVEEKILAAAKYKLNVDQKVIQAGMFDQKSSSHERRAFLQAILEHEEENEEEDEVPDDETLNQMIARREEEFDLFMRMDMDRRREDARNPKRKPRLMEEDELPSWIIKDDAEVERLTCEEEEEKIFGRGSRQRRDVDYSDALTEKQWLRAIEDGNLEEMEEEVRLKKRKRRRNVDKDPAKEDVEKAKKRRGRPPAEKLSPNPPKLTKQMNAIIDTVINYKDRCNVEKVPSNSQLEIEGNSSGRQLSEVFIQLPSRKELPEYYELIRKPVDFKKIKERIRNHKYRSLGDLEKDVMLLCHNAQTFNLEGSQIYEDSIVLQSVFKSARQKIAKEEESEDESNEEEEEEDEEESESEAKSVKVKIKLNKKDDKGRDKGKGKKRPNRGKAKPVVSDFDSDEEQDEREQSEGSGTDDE
Assay: Induction of degradation of HiBit-tagged SMARCA2 in human A549 cells incubated for 6 hrs by NanoGlo HiBiT lytic assay
Assay type: cell-based
Here the recorded DC50 is given for each entry.
Give the quantity in nM, number only.

1) Nc1nnc(-c2ccccc2O)cc1N1CC2CCC(C1)N2c1cccc(OCCN2CCN(CCCC3CCN(c4ccc5c(c4)C(=O)N(C4CCC(=O)NC4=O)C5=O)CC3)CC2)c1 (stereo unspecified) = 2

Give reported DC50 value for Nc1nnc(-c2cc(F)ccc2O)cc1N1CC2CCC(C1)N2c1cccc(CN2CCN(C(=O)C3CCN(c4ccc5c(c4)C(=O)N(C4CCC(=O)NC4=O)C5=O)CC3)CC2)c1 (stereo unspecified)
3

Give reported DC50 value for Nc1nnc(-c2ccccc2O)cc1N1CCC(C(=O)N2CCC(C(=O)N3CCN(c4ccc(C5CCC(=O)NC5=O)cc4)CC3)CC2)(c2ccccc2)CC1 (stereo unspecified)
3

Give reported DC50 value for Nc1nnc(-c2ccccc2O)cc1N1CC2CCC(C1)N2c1cccc(OCCN2CCN(CC3CCN(c4ccc5c(c4)C(=O)N(C4CCC(=O)NC4=O)C5=O)CC3)CC2)c1 (stereo unspecified)
2

Give reported DC50 value for Nc1nnc(-c2ccccc2O)cc1N1CCN(c2cccc(CN3CCN(C(=O)C4CCN(c5ccc6c(c5)C(=O)N(C5CCC(=O)NC5=O)C6=O)CC4)CC3)c2)C2(CC2)C1 (stereo unspecified)
4

Give reported DC50 value for Nc1nnc(-c2ccccc2O)cc1N1CC(Oc2cccc(CN3CCN(C(=O)CN4CCC(c5ccc(NC6CCC(=O)NC6=O)cc5)CC4)CC3)c2)C1 (stereo unspecified)
3
